Target: PDZD7 PDZ1ext G103R (Mus musculus, UniProt E9Q9W7, G103R)
Construct: PDZ1 (81-167), PDZ1ext (81-192); GST (followed by TEV site) (N, cleaved yes); made in house; host or cells: E. coli BL21 DE3
Sequence (E9Q9W7 81-192 G103R): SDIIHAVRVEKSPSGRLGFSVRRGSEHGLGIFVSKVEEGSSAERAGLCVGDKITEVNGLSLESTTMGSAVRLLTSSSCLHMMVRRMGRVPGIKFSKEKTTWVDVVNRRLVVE
Experiment: NMR titration of PDZ1ext G103R
Assay type: binding, murine
Conditions: Tris HCl pH 7.5 (50 mM), 25°C
Where no end group is shown, it is not given here.
Value Type: pKd
// pKd is dimensionless: -log10 of concentration (M)

Request: Which pKd value is on record for VELRRIPIADTHL [ADGRV1pbm] ?
Response: 2.92

The reported numbers originate from paper PMC9274004.
